Tested on: YUMM1.7R cells
PROCEDURE_SUMMARY: WST-8 cell viability assay
Assay type: cell-based
CONDITION_INFO: Mus musculus, read-out: IC50, YUMM1.7R (condition 2)
TEST_READOUT: IC50 (µM)

[[record]]
compound = "CCCS(=O)(=O)Nc1ccc(F)c(C(=O)c2c[nH]c3ncc(-c4ccc(Cl)cc4)cc23)c1F [vemurafenib]"
measured_number = 9.48

